Numbers sourced from paper PMC10849125.

- test target: HR1–HR2 interaction (MBP-HR1 / ALP-HR2) of SARS-CoV-2 (Severe acute respiratory syndrome coronavirus 2, UniProt P0DTC2)
- test method notes: SPICA: inhibition of the HR1–HR2 interaction
- condition notes: pIC50 ± SD, 20 nM MBP-HR1 coated, 5 nM ALP-HR2, MES pH 6.4, OD630, SD
experimental readout: IC50 (µM)
Give a bare numeral; the unit µM is implied.

q: Sample Cc1nnnn1N=Cc1ccc(O)c(C(c2ccc(O)cc2)c2cc(C=Nn3nnnc3C)ccc2O)c1 (stereo not shown) — what was its IC50?
a: 25.1
